- assay.text: Formation of 1,5-cz-[M(Lig)] from Lig and M^III ions (metal dependent click-zip) (Charts 4, 5)
- Assay type: physicochemical
- test.parameters: 1 hour at 80° C.; MOPS/NaOH buffer pH 7.0; TD728, TD827 in 50% i-PrOH; TD714 sum of two diastereoisomers
value.kind: conversion to 1,5-cz-[M(Lig)], Y^III

These recorded examples may help you get a feel for the data.
C#Cc1cccc(CN2CCN(CCC(=O)O)CCN(Cc3cccc(CN=[N+]=[N-])n3)CCN(CCC(=O)O)CC2)n1 [TD801]
0%
C#CCNC(=O)CN1CCN(CC(=O)O)CCN(Cc2cc(-c3ccccc3)cc(CN=[N+]=[N-])n2)CCN(CC(=O)O)CC1 [TD425]
0%
[N-]=[N+]=NCc1cc(-c2ccccc2)cc(CN2CCN(CC(=O)O)CCN(Cc3cccc(C#CCN)n3)CCN(CC(=O)O)CC2)n1 [TD722]
9%

Parameter requested: conversion to 1,5-cz-[M(Lig)], Y^III. Apply to each item below.
1. CC(C)(N)C#Cc1cccc(CN2CCN(CC(=O)O)CCN(Cc3cc(-c4ccccc4)cc(CN=[N+]=[N-])n3)CCN(CC(=O)O)CC2)n1 [TD1054]
2. C#Cc1cccc(CN2CCN(CP(=O)(O)c3ccccc3)CCN(Cc3cccc(CN=[N+]=[N-])n3)CCN(CP(=O)(O)c3ccccc3)CC2)n1 [TD921]

1. 16%
2. 0%

====

Kindly state conversion to 1,5-cz-[Ln(Lig)], Dy^III for each of the entries shown.
- assay.text: Formation of 1,5-cz-[Ln(Lig)] from Lig and Ln^III ions (metal dependent click-zip), MOPS/NaOH buffer pH 7.0, analytical HPLC (Charts 1, 2)
- test.parameters: Dy^III; after 1 week at 80° C.; MOPS/NaOH buffer pH 7.0
The reply should read as a number followed by its unit.

Recorded results for 6 compounds are shown here.
[N-]=[N+]=NCc1cccc(CN2CCN(CC(=O)O)CCN(Cc3cccc(C#CC4CCNCC4)n3)CCN(CC(=O)O)CC2)n1
80%
C#Cc1cccc(CN2CCN(CC(=O)O)CCN(Cc3cc(C(=O)OC(C)C)cc(CN=[N+]=[N-])n3)CCN(CC(=O)O)CC2)n1
0%
C#Cc1cccc(CN2CCN(CC(=O)O)CCN(Cc3cc(Cl)cc(CN=[N+]=[N-])n3)CCN(CC(=O)O)CC2)n1
93%
[N-]=[N+]=NCc1cccc(CN2CCN(CC(=O)O)CCN(Cc3cccc(C#CC45CC6CC(CC(C6)C4)C5)n3)CCN(CC(=O)O)CC2)n1
81%
CC(C)(C#Cc1cccc(CN2CCN(CC(=O)O)CCN(Cc3cccc(CN=[N+]=[N-])n3)CCN(CC(=O)O)CC2)n1)NC(=O)OC(C)(C)C
0%
C#Cc1cccc(CN2CCN(CP(=O)(O)OCC)CCN(Cc3cccc(CN=[N+]=[N-])n3)CCN(CP(=O)(O)OCC)CC2)n1
85%

Moving on to another compound below.
conversion to 1,5-cz-[Ln(Lig)], Dy^III reported for this compound [N-]=[N+]=NCc1cccc(CN2CCN(CC(=O)O)CCN(Cc3cccc(C#CI)n3)CCN(CC(=O)O)CC2)n1 : 17%

====

- assay.text: Formation of 1,5-cz-[Ln(Lig)] from Lig and Ln^III ions (metal dependent click-zip), MOPS/NaOH buffer pH 7.0, analytical HPLC (Charts 1, 2)
- test.parameters: Gd^III; after 1 week at 80° C.; MOPS/NaOH buffer pH 7.0
Output condition met for records whose conversion to 1,5-cz-[Ln(Lig)], Gd^III is lower than 20%, condition not met for records at or above 20%.

Answered examples (3):
C#CCNC(=O)CN1CCN(CC(=O)O)CCN(Cc2cc(-c3ccccc3)cc(CN=[N+]=[N-])n2)CCN(CC(=O)O)CC1
condition met
C#Cc1cccc(CN2CCN(CC(N)=O)CCN(Cc3cc(-c4ccccc4)cc(CN=[N+]=[N-])n3)CCN(CC(N)=O)CC2)n1
condition met
C#Cc1cccc(CN2CCN(CC(=O)O)CCN(Cc3cc(C(=O)OC(C)C)cc(CN=[N+]=[N-])n3)CCN(CC(=O)O)CC2)n1
condition met

Does [N-]=[N+]=NCc1cccc(CN2CCN(CC(=O)O)CCN(Cc3cccc(C#Cc4ccccc4)n3)CCN(CC(=O)O)CC2)n1 have conversion to 1,5-cz-[Ln(Lig)], Gd^III strictly under 20%?
condition not met

Dear reviewer, please state whether [N-]=[N+]=NCc1cccc(CN2CCN(CC(=O)O)CCN(Cc3cccc(C#CC4CC4)n3)CCN(CC(=O)O)CC2)n1 has conversion to 1,5-cz-[Ln(Lig)], Gd^III strictly beneath 20%.
condition not met

Regarding C#Cc1cccc(CN2CCN(CC(=O)O)CCN(Cc3cc(C(=O)OC)cc(CN=[N+]=[N-])n3)CCN(CC(=O)O)CC2)n1 , kindly confirm whether its conversion to 1,5-cz-[Ln(Lig)], Gd^III is beneath 20%.
condition met

Find out if reported conversion to 1,5-cz-[Ln(Lig)], Gd^III for [N-]=[N+]=NCc1cccc(CN2CCN(CC(=O)O)CCN(Cc3cccc(C#CI)n3)CCN(CC(=O)O)CC2)n1 is less than 20%
condition met

Regarding CC(C)(N)C#Cc1cccc(CN2CCN(CC(=O)O)CCN(Cc3cc(-c4ccccc4)cc(CN=[N+]=[N-])n3)CCN(CC(=O)O)CC2)n1 , kindly confirm whether its conversion to 1,5-cz-[Ln(Lig)], Gd^III is beneath 20%.
condition not met

Strictly below 20% in conversion to 1,5-cz-[Ln(Lig)], Gd^III? C#Cc1cccc(CN2CCN(CC(=O)NCC(=O)O)CCN(Cc3cc(-c4ccccc4)cc(CN=[N+]=[N-])n3)CCN(CC(=O)NCC(=O)O)CC2)n1
condition met

# check: conversion to 1,5-cz-[Ln(Lig)], Gd^III < 20% for [N-]=[N+]=NCc1cccc(CN2CCN(CC(=O)O)CCN(Cc3cccc(C#CC4CCNCC4)n3)CCN(CC(=O)O)CC2)n1
condition not met

hey, is conversion to 1,5-cz-[Ln(Lig)], Gd^III for C#Cc1cccc(CN2CCN(CC(=O)O)CCN(Cc3cc(-c4ccc(C(=O)O)cc4)cc(CN=[N+]=[N-])n3)CCN(CC(=O)O)CC2)n1 lower than 20% or not?
condition not met

Quick check: does C#Cc1cccc(CN2CCN(CC(=O)O)CCN(Cc3cc(C(F)(F)F)cc(CN=[N+]=[N-])n3)CCN(CC(=O)O)CC2)n1 have conversion to 1,5-cz-[Ln(Lig)], Gd^III under 20%?
condition not met

I'd appreciate it if you could check whether C#Cc1cccc(CN2CCN(CCC(=O)O)CCN(Cc3cccc(CN=[N+]=[N-])n3)CCN(CCC(=O)O)CC2)n1 has conversion to 1,5-cz-[Ln(Lig)], Gd^III smaller than 20%.
condition met

Please indicate whether the reported conversion to 1,5-cz-[Ln(Lig)], Gd^III of C#Cc1cccc(CN2CCN(CC(=O)O)CCN(Cc3cccc(CN=[N+]=[N-])n3)CCN(CP(=O)(O)O)CC2)n1 is strictly below 20%.
condition not met
